Target: human FXR (NR1H4) (Homo sapiens, UniProt Q96RI1)
Sequence (Q96RI1 1-486): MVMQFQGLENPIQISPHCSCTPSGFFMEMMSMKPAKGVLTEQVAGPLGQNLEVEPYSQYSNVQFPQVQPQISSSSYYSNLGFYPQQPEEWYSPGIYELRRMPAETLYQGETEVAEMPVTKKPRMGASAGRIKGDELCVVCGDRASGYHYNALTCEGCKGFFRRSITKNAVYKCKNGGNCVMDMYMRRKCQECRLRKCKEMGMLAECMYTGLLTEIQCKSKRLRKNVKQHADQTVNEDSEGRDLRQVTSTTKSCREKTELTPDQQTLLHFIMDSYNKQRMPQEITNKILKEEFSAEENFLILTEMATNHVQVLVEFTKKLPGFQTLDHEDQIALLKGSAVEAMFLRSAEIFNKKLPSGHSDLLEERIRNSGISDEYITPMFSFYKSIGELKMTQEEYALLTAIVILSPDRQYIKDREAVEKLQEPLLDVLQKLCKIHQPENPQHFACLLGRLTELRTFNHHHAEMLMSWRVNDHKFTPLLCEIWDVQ
Assay: Human FXR (NR1H4) Assay: Gal4 promoter driven luciferase reporter transactivation in CHO cells (Indigo Bioscience kit IB00601)
Format: cell-based
Settings: potency range, Human FXR (NR1H4) reporter assay in CHO cells; read-out: EC50
Description: Human FXR (NR1H4) Assay Determination of a ligand mediated Gal4 promoter driven transactivation to quantify ligand binding mediated activation of FXR. […] The principle application of this reporter assay system is to quantify functional activity of human FXR. […] Luminescence intensity of the reaction is quantified using a plate-reading luminometer, Envision. […] Cells were incubated for additional 22 hours before luciferase activities were measured. […] Read time may be 0.5 second (500 mSec) per well.
pEC50: −log10 of the molar value.
Quantity: pEC50

{"columns": ["Compound", "Experimental Result"],
 "data": [
  ["O=C(Nc1ccc2ncccc2c1)N1C2CCC1CC(OCc1c(-c3c(Cl)cccc3Cl)noc1C1CC1)C2 (stereo not drawn)", "> 8.00"],
  ["CC(C)(C)c1ccc(NC(=O)N2C3CCC2CC(OCc2c(-c4c(Cl)cccc4Cl)noc2C2CC2)C3)cc1 (stereo not drawn)", "6.00 to 7.00"],
  ["O=C(O)c1cccc(NC(=O)N2C3CCC2CC(OCc2c(-c4ccccc4OC(F)(F)F)noc2C2CC2)C3)n1 (stereo not drawn)", "< 6.00"],
  ["O=C(N[C@H]1CC[C@H](C(=O)O)CC1)N1C2CCC1CC(OCc1c(-c3ccccc3OC(F)(F)F)noc1C1CC1)C2 (stereo partly drawn)", "6.00 to 7.00"],
  ["COC(=O)c1cc(F)c(NC(=O)N2C3CCC2CC(OCc2c(-c4c(Cl)cccc4Cl)noc2C2CC2)C3)cc1-c1ccccc1 (stereo not drawn)", "> 8.00"],
  ["O=C(O)c1cccc(NC(=O)N2C3CCC2CC(NCc2c(-c4c(Cl)cccc4Cl)noc2C2CC2)C3)c1 (stereo not drawn)", "7.00 to 8.00"],
  ["O=C(NS(=O)(=O)C1CC1)c1cccc(NC(=O)N2C3CCC2CC(OCc2c(-c4ccccc4OC(F)(F)F)noc2C2CC2)C3)c1 (stereo not drawn)", "< 6.00"],
  ["N#Cc1ccc(NC(=O)N2C3CCC2CC(OCc2c(-c4c(Cl)cccc4Cl)noc2C2CC2)C3)cc1 (stereo not drawn)", "7.00 to 8.00"]
]}

Consider O=C(O)c1ccc(NC(=O)N2C3CCC2CC(OCc2c(-c4c(Cl)cccc4Cl)noc2C2CC2)C3)cc1-c1ccccc1 (stereo not drawn) . Its measured pEC50 is > 8.00

Reported pEC50 of C[C@@H](NC(=O)N1C2CCC1CC(OCc1c(-c3c(Cl)cccc3Cl)noc1C1CC1)C2)c1ccccc1 (stereo partly drawn) : 6.00 to 7.00

# pEC50 (compound: COC(=O)c1ccc(NC(=O)N2C3CCC2CC(OCc2c(-c4c(Cl)cccc4Cl)noc2C2CC2)C3)cc1C(F)(F)F (stereo not drawn) ) is > 8.00

Recorded result, COC(=O)c1ccc(NC(=O)N2C3CCC2CC(OCc2c(-c4ccccc4OC(F)(F)F)noc2C2CC2)C3)c(F)c1 (stereo not drawn) [Example 745] , pEC50: 6.00 to 7.00
